Target: KRas G12D (Homo sapiens, UniProt P01116, G12D)
Construct: Avidin-tag (so in the source)
Sequence (P01116 1-188 isoform P01116-2 G12D): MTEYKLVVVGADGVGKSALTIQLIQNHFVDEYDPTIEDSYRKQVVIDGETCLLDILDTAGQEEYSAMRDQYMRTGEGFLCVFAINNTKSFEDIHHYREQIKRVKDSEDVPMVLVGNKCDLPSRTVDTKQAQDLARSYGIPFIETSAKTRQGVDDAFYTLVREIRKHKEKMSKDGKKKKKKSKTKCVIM
Assay: KRas G12D Surface Plasmon Resonance (SPR) Binding Assay
Settings: Biacore T200, 20° C., 1:1 binding model, read-out: KD (nM), Determination of KRas G12D KD
PROPERTY_LABEL: Kd (nM)
Give your result in nM as a bare value.

Answered examples (4):
MOLECULE: CN1CCC[C@H]1COc1nc(N2C[C@H]3CC[C@@H](C2)N3)c2cc(Cl)c(-c3cc(O)cc4ccccc34)c(F)c2n1
Kd (nM): 9
--
MOLECULE: CN1CCC[C@H]1COc1nc2c(c(N3CC4CCC3CN4)n1)CCN(c1cc(O)cc3ccccc13)C2 (some centres unmarked)
Kd (nM): 300
--
MOLECULE: CN1CCC[C@H]1COc1nc(N2C[C@H]3CC[C@@H](C2)N3)c2ccc(-c3cc(O)cc4ccccc34)c(F)c2n1
Kd (nM): 3
--
MOLECULE: CN1CCC[C@H]1COc1nc(N2C[C@H]3CC[C@@H]2CN3)c2cnc(-c3cc(O)cc4ccccc34)c(F)c2n1
Kd (nM): 93

The molecule identified as CN1CCC[C@H]1COc1nc(N2CC3CCC2CN3)c2cc(Cl)c(-c3cc(O)cc4ccccc34)c(F)c2n1 (some centres unmarked) registered its Kd at 16

----------
Biological target: GDP-loaded recombinant human KRAS G12D (Homo sapiens, UniProt P01116, G12D)
Construct: corresponding to amino acids 1:169, produced at Array BioPharma; biotin (biotinylated); made in house
Assay: KRas G12D Binding Assay (TR-FRET displacement of Cy5 labelled tracer)
Settings: 60 minute incubation at 22° C.
IC50 values, listed per item
Give your result in nM as a bare value.

The compound identified as CN1CCC[C@H]1COc1nc(N2C[C@H]3CC[C@@H](C2)N3)c2cc(Oc3ccccc3C#N)c(-c3cc(O)cc4ccccc34)cc2n1 [Example 20] registered its IC50 at 1.6

The compound identified as N#Cc1ccccc1Oc1cc2c(N3CC4CCC(C3)N4)nc(OCC34CCCN3C[C@H](F)C4)nc2c(F)c1-c1cc(O)cc2ccccc12 (mixture of isomers) [Example 27] registered its IC50 at 3.6

The compound identified as CN1CCC[C@H]1COc1nc(N2CC3CCC2CN3)c2cnc(-c3cc(O)cc4ccccc34)c(F)c2n1 (stereo partly drawn) [Example 14] registered its IC50 at 30.8

----------
Molecular target: KRas G12D (Homo sapiens, UniProt P01116, G12D)
Construct: Avidin-tag (so in the source)
Assay: KRas G12D Surface Plasmon Resonance (SPR) Binding Assay
Conditions: Biacore T200, 20° C., 1:1 binding model, read-out: KD (nM), Determination of KRas G12D KD
Kd values, listed per item
Give your result in nM as a bare value.

COMPOUND: Fc1c(-c2cccc3cccc(Cl)c23)ccc2c(N3C[C@H]4CC[C@@H](C3)N4)nc(OCC34CCCN3CCC4)nc12
UNIT_NAME: nM
Kd: 8

COMPOUND: CN1CCC[C@H]1COc1nc(N2CC3CCC2CN3)c2cnc(-c3cc(O)cc4ccccc34)c(F)c2n1 (stereo partly shown)
UNIT_NAME: nM
Kd: 36

COMPOUND: CN1CCC[C@H]1COc1nc(N2C[C@H]3CC[C@@H](C2)N3)c2ccc(-c3cc(O)cc4ccccc34)cc2n1
UNIT_NAME: nM
Kd: 19

Continue with the compound presented below.
The compound identified as CN1C[C@H](F)C[C@H]1COc1nc(N2C[C@H]3CC[C@@H](C2)N3)c2ccc(-c3cc(O)cc4ccccc34)c(F)c2n1 registered its Kd at 5
